System: CP297
Assay: qHTS profiling for inhibitors of Plasmodium falciparum proliferation (AID 504749); also: nearly all actives have a fitted effect of over 60% in size
Details: P. falciparum in erythrocytes, SYBR Green DNA, 72 h; series mostly up to 28.7 µM
Results filed as inconclusive are left out. Calls of active or inactive are those of the source. Calls follow the shape of the dose curve; as a rule, active = well fitted inhibition curve with a large enough effect; inconclusive = small, poorly fitted or top-dose-only effect; inactive = flat fitted curve, though single readings scatter. Bridge positions count the residues as written; N and C are the ends. Square brackets hold non-standard residues; d marks the D form. Peptide text beside a SMILES is read from it. * marks the point of attachment. ξ: configuration not given here. ξDab(CH2SO3H) = NC(CCNCS(=O)(=O)O)C(=O)O; Heptanoyl(6-Me) = CC(C)CCCCC(=O)*; Dab = NCC[CH](N)C(=O)O
Labels: true = active, false = inactive

>  <compound>
CNCC(=O)NC(CCCN=C(N)N)C(=O)NC(C(=O)NC(Cc1ccc(O)cc1)C(=O)NC(C(=O)NC(Cc1cnc[nH]1)C(=O)N1CCCC1C(=O)NC(C)C(=O)O)C(C)C)C(C)C (configuration not stated)

>  <label>
false

$$$$
>  <compound>
CC(N)C(=O)NCC(=O)NC1CSSCC(C(=O)O)NC(=O)C(CO)NC(=O)C(C(C)O)NC(=O)C(Cc2ccccc2)NC(=O)C(C(C)O)NC(=O)C(CCCCN)NC(=O)C(Cc2c[nH]c3ccccc23)NC(=O)C(Cc2ccccc2)NC(=O)C(Cc2ccccc2)NC(=O)C(CC(N)=O)NC(=O)C(CCCCN)NC1=O (configuration not stated)

>  <label>
false

$$$$
>  <compound>
O=C1/C(=C\c2cccs2)CCC/C1=C/c1cccs1

>  <label>
false

$$$$
>  <compound>
CC1(C)C(/C=C/C=C/C=C/C=C2\N(CCCCS(=O)(=O)O)c3ccc4ccccc4c3C2(C)C)=[N+](CCCCS(=O)(=O)[O-])c2ccc3ccccc3c21

>  <label>
false

$$$$
>  <compound>
CCC(C)C1NC(=O)C(CCNCS(=O)(=O)O)NC(=O)C(NC(=O)C(CCNCS(=O)(=O)O)NC(=O)C(NC(=O)C(CCNCS(=O)(=O)O)NC(=O)CCCCC(C)C)C(C)O)CCNC(=O)C(C(C)O)NC(=O)C(CCNCS(=O)(=O)O)NC(=O)C(CCNCS(=O)(=O)O)NC(=O)C(C(C)CC)NC1=O (configuration not stated) ({Heptanoyl(6-Me)}-[ξDab(CH2SO3H)]T[ξDab(CH2SO3H)][Dab][ξDab(CH2SO3H)]II[ξDab(CH2SO3H)][ξDab(CH2SO3H)]T; lactam 4-C; configuration not given here)

>  <label>
false

$$$$
>  <compound>
CCOC(=O)C(CS)NCCN[C@@H](CS)C(=O)OCC (some centres not stated)

>  <label>
false

$$$$
>  <compound>
O=C(OCC1OC(OC(=O)c2cc(O)c(O)c(OC(=O)c3cc(O)c(O)c(O)c3)c2)[C@@H](OC(=O)c2cc(O)c(O)c(OC(=O)c3cc(O)c(O)c(O)c3)c2)C(OC(=O)c2cc(O)c(O)c(OC(=O)c3cc(O)c(O)c(O)c3)c2)C1OC(=O)c1cc(O)c(O)c(OC(=O)c2cc(O)c(O)c(O)c2)c1)c1cc(O)c(O)c(OC(=O)c2cc(O)c(O)c(O)c2)c1 (some centres not stated)

>  <label>
true

$$$$

Recorded values, source PubChem BioAssay (NCATS).
